B1: library; a variant is named by its letters at N, in order (parent)
chain: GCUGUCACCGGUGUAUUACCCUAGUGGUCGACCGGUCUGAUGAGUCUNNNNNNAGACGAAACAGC

Variants of: B1
Assay: normalized RNA/DNA level without ligand (relative to sTRSVctl = 100) (log10 (% of sTRSVctl)); ligand: hypoxanthine (xanthine aptamer); higher = less ribozyme self-cleavage, higher mRNA level
Conditions: HEK293T, reporter: mCherry (pCS4076), ligand present: no
As shown below, each of these variants has a reported normalized RNA/DNA level without ligand (log10) value.
Answer with the value's number alone.

ENTRY_SEQUENCE | REPORTED_MEASUREMENT
GCUGUCACCGGUGUAUUACCCUAGUGGUCGACCGGUCUGAUGAGUCUAUAUCCAGACGAAACAGC [AUAUCC] | 1.88
GCUGUCACCGGUGUAUUACCCUAGUGGUCGACCGGUCUGAUGAGUCUGAUCCCAGACGAAACAGC [GAUCCC] | 1.89
GCUGUCACCGGUGUAUUACCCUAGUGGUCGACCGGUCUGAUGAGUCUGCUCCCAGACGAAACAGC [GCUCCC] | 1.84
GCUGUCACCGGUGUAUUACCCUAGUGGUCGACCGGUCUGAUGAGUCUCCUGCUAGACGAAACAGC [CCUGCU] | 1.98
GCUGUCACCGGUGUAUUACCCUAGUGGUCGACCGGUCUGAUGAGUCUCCUACCAGACGAAACAGC [CCUACC] | 1.86

Task: // lookup normalized RNA/DNA level without ligand (log10) for GCUGUCACCGGUGUAUUACCCUAGUGGUCGACCGGUCUGAUGAGUCUACGCGUAGACGAAACAGC [ACGCGU]
Result: 1.57

Task: # get_value(readout='normalized RNA/DNA level without ligand (log10)', item= GCUGUCACCGGUGUAUUACCCUAGUGGUCGACCGGUCUGAUGAGUCUCUCUCUAGACGAAACAGC [CUCUCU] )
Result: 1.9

Task: // normalized RNA/DNA level without ligand (log10) lookup, key: GCUGUCACCGGUGUAUUACCCUAGUGGUCGACCGGUCUGAUGAGUCUAGUUACAGACGAAACAGC [AGUUAC]
Result: 1.78

Task: Returns the measured normalized RNA/DNA level without ligand (log10) for the input variant. Input: GCUGUCACCGGUGUAUUACCCUAGUGGUCGACCGGUCUGAUGAGUCUUUUCGGAGACGAAACAGC [UUUCGG]
Result: 1.94

Task: // lookup normalized RNA/DNA level without ligand (log10) for GCUGUCACCGGUGUAUUACCCUAGUGGUCGACCGGUCUGAUGAGUCUUUCAGUAGACGAAACAGC [UUCAGU]
Result: 1.83
